Give measured Molt4 IC50 for each item. Keep answers brief.
Target: T1, human CD98, endogenously expressed on Molt-4 human acute lymphoblastic leukemia cells (human)
T1 chain: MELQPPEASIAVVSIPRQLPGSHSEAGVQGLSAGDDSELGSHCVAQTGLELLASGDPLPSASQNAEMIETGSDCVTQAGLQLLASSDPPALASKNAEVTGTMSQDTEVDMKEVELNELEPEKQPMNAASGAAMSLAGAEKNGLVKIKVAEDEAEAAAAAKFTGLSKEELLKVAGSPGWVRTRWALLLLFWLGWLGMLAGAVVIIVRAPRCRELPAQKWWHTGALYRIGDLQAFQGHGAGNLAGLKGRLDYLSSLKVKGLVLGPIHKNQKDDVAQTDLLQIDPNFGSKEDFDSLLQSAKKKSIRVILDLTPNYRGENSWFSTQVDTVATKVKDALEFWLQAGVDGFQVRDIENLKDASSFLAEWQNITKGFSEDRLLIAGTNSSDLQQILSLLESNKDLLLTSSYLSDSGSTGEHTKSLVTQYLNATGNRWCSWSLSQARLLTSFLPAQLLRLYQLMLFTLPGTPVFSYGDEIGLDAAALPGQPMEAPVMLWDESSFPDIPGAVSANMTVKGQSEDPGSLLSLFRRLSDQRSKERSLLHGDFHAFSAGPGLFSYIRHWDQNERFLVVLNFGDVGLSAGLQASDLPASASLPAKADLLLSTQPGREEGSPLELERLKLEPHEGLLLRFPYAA
Assay: cell-based or functional assay
Answers are plain numbers, in nM.

| binder | Molt4 IC50 (nM) |
| --- | --- |
| CD98 (CL-huAb104)-TV (antibody, human IgG1, kappa, L234A L235A, V domains shown, synthon TV on reduced interchain cysteines (sites not given)) VH: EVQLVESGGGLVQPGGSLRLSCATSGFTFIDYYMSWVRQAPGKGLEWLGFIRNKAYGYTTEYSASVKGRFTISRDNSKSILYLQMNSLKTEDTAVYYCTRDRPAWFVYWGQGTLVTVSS VL: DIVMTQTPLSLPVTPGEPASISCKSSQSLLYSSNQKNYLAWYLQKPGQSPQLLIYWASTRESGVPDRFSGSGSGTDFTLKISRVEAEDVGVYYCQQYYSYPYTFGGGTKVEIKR | 0.03 |
| CD98 (CL-huAb108)-AAD (antibody, human IgG1, kappa, L234A L235A, V domains shown, synthon AAD on reduced interchain cysteines (sites not given)) VH: EVQLVQSGAEVKKPGASVKVSCKASGFTFSDYTMAWVRQAPGQGLEWVATIIYSGRGTYYRDAVKGRFTITRDNSTSTLYLELSSLRSEDTAVYYCARQSDDTYYYWGYFDYWGQGTMVTVSS VL: DIVMTQTPLSLPVTPGEPASINCKSSQSLLFSGNQKNYLAWYLQKPGQSPQLLIYWASTRQSGVPDRFSGSGSGTDFTLKISRVEAEDVGIYYCQQYYDVPYTFGQGTKLEIKR | 0.091 |
| CD98 (CL-huAb104)-YY (antibody, human IgG1, kappa, L234A L235A, V domains shown, synthon YY on reduced interchain cysteines (sites not given)) VH: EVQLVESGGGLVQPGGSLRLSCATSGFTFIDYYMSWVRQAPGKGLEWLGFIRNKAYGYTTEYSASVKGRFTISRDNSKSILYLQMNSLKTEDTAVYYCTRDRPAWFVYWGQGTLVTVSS VL: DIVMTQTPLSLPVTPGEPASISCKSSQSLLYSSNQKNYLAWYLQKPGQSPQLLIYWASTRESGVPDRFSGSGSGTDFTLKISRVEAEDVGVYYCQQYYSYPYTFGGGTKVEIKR | 0.03 |
| CD98 (CL-huAb108)-YY (antibody, human IgG1, kappa, L234A L235A, V domains shown, synthon YY on reduced interchain cysteines (sites not given)) VH: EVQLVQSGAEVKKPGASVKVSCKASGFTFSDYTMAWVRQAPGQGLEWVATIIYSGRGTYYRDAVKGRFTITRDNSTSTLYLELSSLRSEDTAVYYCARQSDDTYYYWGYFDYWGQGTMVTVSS VL: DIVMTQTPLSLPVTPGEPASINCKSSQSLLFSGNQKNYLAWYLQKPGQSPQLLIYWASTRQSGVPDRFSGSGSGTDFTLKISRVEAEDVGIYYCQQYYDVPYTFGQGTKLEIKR | 0.14 |

For the next question, use this binder.
IN: Which Molt4 IC50 is reported for this binder? CD98 (CL-huAb102)-ZT (antibody, human IgG1, kappa, L234A L235A, V domains shown, synthon ZT on reduced interchain cysteines (sites not given)) VH: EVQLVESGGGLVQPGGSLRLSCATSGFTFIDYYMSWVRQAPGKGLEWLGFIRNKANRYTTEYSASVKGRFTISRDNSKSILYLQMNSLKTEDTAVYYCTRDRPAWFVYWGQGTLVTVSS VL: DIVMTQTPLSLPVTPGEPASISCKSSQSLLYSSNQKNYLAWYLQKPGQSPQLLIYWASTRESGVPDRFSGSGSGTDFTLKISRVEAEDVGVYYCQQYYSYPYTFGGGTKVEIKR
OUT: 0.04
